Provenance of the data: patent US10428062B2

Target: human α7 nAChR (Homo sapiens, UniProt P36544)
Sequence (P36544 23-502): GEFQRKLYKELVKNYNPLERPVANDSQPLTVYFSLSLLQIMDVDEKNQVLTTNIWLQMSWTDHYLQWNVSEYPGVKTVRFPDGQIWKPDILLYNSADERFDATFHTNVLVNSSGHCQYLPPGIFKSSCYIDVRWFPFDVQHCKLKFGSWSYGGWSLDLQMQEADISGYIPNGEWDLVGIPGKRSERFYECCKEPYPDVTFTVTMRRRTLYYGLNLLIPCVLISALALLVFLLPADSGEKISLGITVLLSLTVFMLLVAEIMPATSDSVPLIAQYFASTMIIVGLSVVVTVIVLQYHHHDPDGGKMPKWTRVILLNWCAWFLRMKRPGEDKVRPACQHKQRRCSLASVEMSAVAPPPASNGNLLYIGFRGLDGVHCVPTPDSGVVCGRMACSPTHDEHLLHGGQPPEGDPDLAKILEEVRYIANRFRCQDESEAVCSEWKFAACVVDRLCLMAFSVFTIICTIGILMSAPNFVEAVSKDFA
ASSAY ENDPOINT: Ki (nM)
Use nM as the unit, but write only the number.

Ask: State its Ki: Cc1ccc(-c2ccc(OC3CN4CCC3CC4)cn2)cc1 (stereo not shown) [AQW051]
Result: 255

====

Catalogue of pKi readings, one per entry.
Molecular target: human 5-HT3 serotonin receptors (Homo sapiens, UniProt P46098)
Sequence (P46098 24-478): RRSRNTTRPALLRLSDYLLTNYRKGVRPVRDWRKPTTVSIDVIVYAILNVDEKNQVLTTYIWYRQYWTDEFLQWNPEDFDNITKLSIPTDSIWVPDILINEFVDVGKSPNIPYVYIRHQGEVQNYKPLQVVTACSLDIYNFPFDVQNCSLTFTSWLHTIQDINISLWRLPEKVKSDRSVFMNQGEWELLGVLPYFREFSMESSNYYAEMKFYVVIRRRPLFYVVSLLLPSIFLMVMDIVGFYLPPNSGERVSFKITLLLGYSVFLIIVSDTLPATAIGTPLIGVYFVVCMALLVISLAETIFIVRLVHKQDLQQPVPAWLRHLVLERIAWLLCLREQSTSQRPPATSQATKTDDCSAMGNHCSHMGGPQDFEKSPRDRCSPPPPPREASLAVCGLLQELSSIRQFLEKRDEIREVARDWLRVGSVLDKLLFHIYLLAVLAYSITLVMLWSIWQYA
Test: [3H]BRL 43694 competition binding assay (Cerep)
Settings: CHO cell membranes expressing human 5-HT3 receptors, [3H]BRL 43694, 120 min at room temperature; read-out: h-5HT3 Ki
Where a name gives a salt, the structure may show the parent alone.
Keep it numeric: pKi is minus log10 of the concentration in mol/L.

Cc1ccc2c(N[C@@H]3C4CCN(CC4)C3(C)C)noc2c1Cl [Compound (R)-13, hydrochloride]    6.82
Clc1ccc2c(N[C@@H]3C4CCN(CC4)C34CC4)noc2c1 [Compound (R)-16]    5.79
Cc1c(Cl)ccc2c(N[C@@H]3C4CCN(CC4)C34CC4)noc12 [Compound (R)-25, hydrochloride]    6.77

Ask: State its pKi: CC1(C)[C@H](Nc2noc3c(Cl)c(F)ccc23)C2CCN1CC2 [Compound (R)-8, hydrochloride]
Result: 6.77

Ask: State its pKi: Cc1ccc2c(N[C@@H]3C4CCN(CC4)C34CC4)noc2c1F [Compound (R)-22, hydrochloride]
Result: 6.27
